target: bovine eNOS (Bos taurus (Bovine)); experiment: NOS inhibition assay, eNOS; format: biochemical; details: ratio of Ki (eNOS) to nNOS
test_readout: Selectivity e/n
Keep the answer to the number alone.

Before answering, review these 7 worked examples.
In [3]: df
Out[3]:
                                   molecule  value_observed
0  Cc1cc(N)nc(CO[C@H]2CN[C@H](COCCOCc3cccc(F)c3)C2)c1              52
1  Cc1cc(N)nc(COC[C@H]2C[C@H](OCc3cc(C)cc(N)n3)CN2)c1             693
2  Cc1cc(N)nc(COCCOC[C@H]2C[C@@H](OCc3cc(C)cc(N)n3)CN2)c1              46
3  Cc1cc(N)nc(COC[C@@H]2C[C@H](OCc3cc(C)cc(N)n3)CN2)c1              76
4  Cc1cc(N)nc(COC[C@@H]2C[C@@H](OCc3cc(C)cc(N)n3)CN2)c1              84
5  Cc1cc(N)nc(COCCOC[C@@H]2C[C@@H](OCc3cc(C)cc(N)n3)CN2)c1              89
6  Cc1cc(N)nc(CO[C@H]2CN[C@@H](COCCOCc3cccc(F)c3)C2)c1              35

Attention now shifts to the item below.
Task item: Which Selectivity e/n is reported for this molecule? Cc1cc(N)nc(COC[C@H]2C[C@@H](OCc3cc(C)cc(N)n3)CN2)c1
Reply: 102

====

biological target: rat nNOS (Rattus norvegicus (Rat))
Reported Ki values follow for various compounds
Your answer is read as nM, so omit the unit and give the number.

>>> print(df.to_string())
                                   molecule  readout_unit  value_observed
0           Cc1cc(N)nc(COc2cccc(OCCCN)c2)c1            nM              60
1  Cc1cc(N)nc(COC[C@H]2C[C@@H](OCc3cc(C)cc(N)n3)CN2)c1            nM              34

Task item: Which Ki is reported for this compound? Cc1cc(N)nc(COc2cccc(OCC3CCNCC3)c2)c1
Reply: 117

====

Below are pKi values measured for bovine eNOS (Bos taurus (Bovine)).
Please note pKi is a logarithmic value: minus log10 of concentration in mol/L. Answer with that number alone.

>>> print(df.to_string())
                                   compound  value_observed
0  Cc1cc(N)nc(COCCOC[C@@H]2C[C@@H](OCc3cc(C)cc(N)n3)CN2)c1 [Compound 10]            5.20

Attention now shifts to the item below.
Task item: GET /values?readout=pKi&system=bovine eNOS (Bos taurus (Bovine))&item= Cc1cc(N)nc(CO[C@H]2CN[C@H](COCCOCc3cccc(F)c3)C2)c1 [Compound 12]
Reply: 5.10

====

Reported Selectivity i/n values follow for various compounds
target: murine iNOS (Mus musculus (Mouse)); assay: NOS inhibition assay, iNOS; format: biochemical; conditions: ratio of Ki (iNOS) to nNOS
Keep the answer to the number alone.

>>> print(df.to_string())
                                   molecule  value_observed
0  Cc1cc(N)nc(COC[C@@H]2C[C@@H](OCc3cc(C)cc(N)n3)CN2)c1              87
1  Cc1cc(N)nc(CO[C@H]2CN[C@H](COCCOCc3cccc(F)c3)C2)c1              38
2  Cc1cc(N)nc(CO[C@H]2CN[C@@H](COCCOCc3cccc(F)c3)C2)c1              26
3  Cc1cc(N)nc(COCCOC[C@@H]2C[C@@H](OCc3cc(C)cc(N)n3)CN2)c1              33
4  Cc1cc(N)nc(COC[C@@H]2C[C@H](OCc3cc(C)cc(N)n3)CN2)c1              61
5  Cc1cc(N)nc(COCCOC[C@H]2C[C@@H](OCc3cc(C)cc(N)n3)CN2)c1              68
6  Cc1cc(N)nc(COC[C@H]2C[C@@H](OCc3cc(C)cc(N)n3)CN2)c1             164

Task item: GET /values?readout=Selectivity i/n&system=murine iNOS (Mus musculus (Mouse))&item= Cc1cc(N)nc(COC[C@H]2C[C@H](OCc3cc(C)cc(N)n3)CN2)c1
Reply: 295
